tested on: SK-OV-3; test: Antitumor activity against human SK-OV-3 cells assessed as reduction in cell viability incubated for 72 hrs; type: functional, cell-based; details: SK-OV-3, 72 h
# pIC50 values compiled below
Please express pIC50 as -log10 of the molar concentration.

| compound | testValue |
| --- | --- |
| O=C1O[C@@]23C[C@@H](C=CC2=C1C(O)c1ccccc1Br)N1CCCC[C@H]13 (stereo not given in full) | 5.11 |

So, O=C1O[C@@]23C[C@@H](C=CC2=C1C(O)c1ccc(C(F)(F)F)cc1)N1CCCC[C@H]13 (stereo not given in full) ? Its pIC50 was 4.87

So, O=C1C=C2C=C[C@H]3C[C@@]2(O1)[C@@H]1CCCCN13 ? Its pIC50 was 4.45

So, O=C1O[C@@]23C[C@@H](C=CC2=C1C(O)c1ccc(Br)cc1)N1CCCC[C@H]13 (stereo not given in full) ? Its pIC50 was 4.85

So, O=C1O[C@@]23C[C@@H](C=CC2=C1C(O)c1ccccc1)N1CCCC[C@H]13 (stereo not given in full) ? Its pIC50 was 4.84

----------
test system: THP-1; assay: Antitumor activity against human THP-1 cells assessed as reduction in cell viability incubated for 72 hrs; type: functional, cell-based; settings: THP-1, 72 h
# pIC50 values compiled below
Please express pIC50 as -log10 of the molar concentration.

Example entries begin here.
| molecule | testValue |
| --- | --- |
| O=C1O[C@@]23C[C@@H](C=CC2=C1C(O)c1ccc(F)cc1)N1CCCC[C@H]13 (some centres undefined) | 4.91 |
| N#Cc1ccc(C(O)C2=C3C=C[C@@H]4C[C@@]3(OC2=O)[C@@H]2CCCCN42)cc1 (some centres undefined) | 4.81 |
| O=C1O[C@@]23C[C@@H](C=CC2=C1C(O)c1ccc(Cl)cc1)N1CCCC[C@H]13 (some centres undefined) | 4.83 |
| Cc1ccc(C(O)C2=C3C=C[C@@H]4C[C@@]3(OC2=O)[C@@H]2CCCCN42)cc1 (some centres undefined) | 4.90 |
| O=C1O[C@@]23CC(C=CC2=C1C(O)c1ccccc1[N+](=O)[O-])N1CCCC[C@H]13 (single isomer, unassigned) | 4.97 |
| O=C1O[C@@]23C[C@@H](C=CC2=C1C(O)c1ccccc1Br)N1CCCC[C@H]13 (some centres undefined) | 4.81 |
| O=C1O[C@@]23C[C@@H](C=CC2=C1C(O)c1csc2ccccc12)N1CCCC[C@H]13 (some centres undefined) | 4.81 |
| O=C1O[C@@]23C[C@@H](C=CC2=C1C(O)c1ccc(F)cc1F)N1CCCC[C@H]13 (some centres undefined) | 4.80 |

Turning now to a further molecule:
So, O=C1O[C@@]23C[C@@H](C=CC2=C1C(O)c1ccccc1F)N1CCCC[C@H]13 (some centres undefined) ? Its pIC50 was 5.48

----------
system: THP-1; assay: Antitumor activity against human THP-1 cells assessed as reduction in cell viability incubated for 72 hrs; assay type: functional, cell-based; conditions: THP-1, 72 h
quantityMeasured: pIC50
Please express pIC50 as -log10 of the molar concentration.

Case N#Cc1cccc(C(O)C2=C3C=C[C@@H]4C[C@@]3(OC2=O)[C@@H]2CCCCN42)c1 (stereo partly drawn) , THP-1, pIC50 recorded as 4.79

Case O=C1O[C@@]23C[C@@H](C=CC2=C1C(O)c1ccccc1)N1CCCC[C@H]13 (stereo partly drawn) , THP-1, pIC50 recorded as 4.68

Case O=C1O[C@@]23C[C@@H](C=CC2=C1C(O)c1ccc([N+](=O)[O-])cc1[N+](=O)[O-])N1CCCC[C@H]13 (stereo partly drawn) , THP-1, pIC50 recorded as 4.74

Case CC(C)(C)c1ccc(C(O)C2=C3C=C[C@@H]4C[C@@]3(OC2=O)[C@@H]2CCCCN42)cc1 (stereo partly drawn) , THP-1, pIC50 recorded as 4.79

Case O=C1O[C@@]23C[C@@H](C=CC2=C1C(O)c1cccc([N+](=O)[O-])c1)N1CCCC[C@H]13 (stereo partly drawn) , THP-1, pIC50 recorded as 4.92

Case O=C1O[C@@]23C[C@@H](C=CC2=C1C(O)c1nc2ccccc2s1)N1CCCC[C@H]13 (stereo partly drawn) , THP-1, pIC50 recorded as 4.78

Case CC[C@@]1(O)C(=O)OCc2c1cc1n(c2=O)Cc2cc3ccccc3nc2-1 , THP-1, pIC50 recorded as 5.72
